Values compiled from paper PMC12649549.

Kindly state MIC for each of the entries shown.
# Tested on: S. aureus ATCC 33593
# measurement.context: LYM broth, 200 mM (NaCl); 16 h, 37 °C
Please state the figure in µg/mL; there is no need to write the unit.

Lab request: please report MIC under test system S. aureus ATCC 33593 for Ac-KWLAKKKKWRKWL-NH2 [Peptide W5K07] 50

Provide value of MIC for this record tested with S. aureus ATCC 33593: Ac-KWRKWLKWLAKKK-NH2 [Peptide W5K01] 25

What MIC appears in the records for this substance with S. aureus ATCC 33593? Ac-WLKWLAKKKKWRK-NH2 [Peptide W5K05] 25

API: value(readout=MIC, system=S. aureus ATCC 33593) for record Ac-KKKWRKWLKWLAK-NH2 [Peptide W5K12] 6.25

API: value(readout= MIC, system= S. aureus ATCC 33593, query= Ac-KKKKWRKWLKWLA-NH2 [Peptide W5K11] ) 3.13

Write down the reported MIC of Ac-WRKWLKWLAKKKK-NH2 [Peptide W5K02] , test system: S. aureus ATCC 33593. 50

S. aureus ATCC 33593 / MIC / Ac-AKKKKWRKWLKWL-NH2 [Peptide W5K10] : value? 12.5

Form entry - test system: S. aureus ATCC 33593; read-out: MIC; substance: Ac-KKWRKWLKWLAKK-NH2 [W5K/A9W] 6.25

###

# Test system: S. aureus ATCC 33591
# measurement.context: LYM broth, 0.5 mM MgCl2
measure: MIC (µg/mL)
Kindly provide the numeric value in µg/mL only, without the unit symbol.

Item: Ac-KKKKWRKWLKWLA-NH2 [Peptide W5K11] Test system: S. aureus ATCC 33591 Read-out: MIC Value: ? 3.13

Enter reported MIC observed with S. aureus ATCC 33591 for Ac-RKWLKWLAKKKKW-NH2 [Peptide W5K03] 25

Request: MIC, test system S. aureus ATCC 33591, entry Ac-KWLAKKKKWRKWL-NH2 [Peptide W5K07] 25

Please state recorded MIC (tested on S. aureus ATCC 33591) of Ac-LAKKKKWRKWLKW-NH2 [Peptide W5K09] 25

Test system S. aureus ATCC 33591; read-out MIC; what value for Ac-KKKWRKWLKWLAK-NH2 [Peptide W5K12] ? 3.13

Checklist item: MIC tested on S. aureus ATCC 33591, entry Ac-KKWRKWLKWLAKK-NH2 [W5K/A9W] , value? 3.13

###

# System: A. baumannii 14B00100 (Acinetobacter sp., BCRC number 14B0100)
# measurement.context: LYM broth, pH 4.5
# Method: The antibacterial and salt-resistant activity of the peptides was tested using Escherichia coli (ATCC 25922), Pseudomonas aeruginosa Migula (ATCC 27853), Acinetobacter sp. […] The inoculum concentrations were determined by measuring the optical density at 600 nm (OD 600 = 1, approximately 10^8 CFU/mL) using an Ultrospec 2100 pro UV-Visible spectrophotometer (Biochrom Ltd., Cambridge, UK) after 8 h of culture. […]
Can you tell me MIC for the items I'm about to list?
The figure you give is taken to be in µg/mL; do not add the unit.

Find the measured MIC: item Ac-AKKKKWRKWLKWL-NH2 [Peptide W5K10] , target or system A. baumannii 14B00100 (Acinetobacter sp., BCRC number 14B0100). 1.56

What MIC appears in the records for this substance with A. baumannii 14B00100 (Acinetobacter sp., BCRC number 14B0100)? Ac-WRKWLKWLAKKKK-NH2 [Peptide W5K02] 1.56

Request - read-out MIC | tested on A. baumannii 14B00100 (Acinetobacter sp., BCRC number 14B0100) | substance Ac-KKKWRKWLKWLAK-NH2 [Peptide W5K12] 3.13

Quick check: MIC on A. baumannii 14B00100 (Acinetobacter sp., BCRC number 14B0100), item Ac-RKWLKWLAKKKKW-NH2 [Peptide W5K03] ? 1.56

// lookup MIC | system=A. baumannii 14B00100 (Acinetobacter sp., BCRC number 14B0100) | key= Ac-KKWRKWLKWLAKK-NH2 [W5K/A9W] 1.56

Field: MIC (A. baumannii 14B00100 (Acinetobacter sp., BCRC number 14B0100)). Entry: Ac-KWRKWLKWLAKKK-NH2 [Peptide W5K01] 1.56

MIC of Ac-LAKKKKWRKWLKW-NH2 [Peptide W5K09] on A. baumannii 14B00100 (Acinetobacter sp., BCRC number 14B0100)? 3.13

Request: MIC, test system A. baumannii 14B00100 (Acinetobacter sp., BCRC number 14B0100), entry Ac-LKWLAKKKKWRKW-NH2 [Peptide W5K06] 3.13

Form field: MIC recorded for Ac-WLKWLAKKKKWRK-NH2 [Peptide W5K05] with A. baumannii 14B00100 (Acinetobacter sp., BCRC number 14B0100) (enter value) 1.56

Enter reported MIC observed with A. baumannii 14B00100 (Acinetobacter sp., BCRC number 14B0100) for Ac-WLAKKKKWRKWLK-NH2 [Peptide W5K08] 3.13

// lookup MIC | system=A. baumannii 14B00100 (Acinetobacter sp., BCRC number 14B0100) | key= Ac-KWLKWLAKKKKWR-NH2 [Peptide W5K04] 1.56

Checklist item: MIC tested on A. baumannii 14B00100 (Acinetobacter sp., BCRC number 14B0100), entry Ac-KKKKWRKWLKWLA-NH2 [Peptide W5K11] , value? 1.56

Which measured MIC belongs to Ac-KWLAKKKKWRKWL-NH2 [Peptide W5K07] , tested on A. baumannii 14B00100 (Acinetobacter sp., BCRC number 14B0100)? 3.13
